tested system: HLA-B*27:05
assay summary: IEDB peptide-MHC binding, purified MHC/direct/fluorescence; filed as Kd, often an IC50 or EC50 that approximates it; bounds were set here for any values at or beyond the usual limits of such assays
run conditions: source organism: Mammarenavirus juninense
pKd: −log10 of the molar value.
measured parameter: pKd

Recorded pKd of ASSEPHCAL , please.
≤ 4.70

###

tested system: HLA-B*46:01
assay summary: IEDB peptide-MHC binding, purified MHC/competitive/fluorescence; filed as Kd, often an IC50 or EC50 that approximates it; bounds were set here for any values at or beyond the usual limits of such assays
run conditions: source organism: Cryptosporidium parvum Iowa II
measured parameter: Kd

Short answer please: Kd, HLA-B*46:01, entry RLKHIFLIF
≥ 20 µM
